Kindly state EC50 for each of the entries shown.
Target desc: Retinoic acid receptor RXR-alpha (Homo sapiens)
Sequence (P19793 whole entry): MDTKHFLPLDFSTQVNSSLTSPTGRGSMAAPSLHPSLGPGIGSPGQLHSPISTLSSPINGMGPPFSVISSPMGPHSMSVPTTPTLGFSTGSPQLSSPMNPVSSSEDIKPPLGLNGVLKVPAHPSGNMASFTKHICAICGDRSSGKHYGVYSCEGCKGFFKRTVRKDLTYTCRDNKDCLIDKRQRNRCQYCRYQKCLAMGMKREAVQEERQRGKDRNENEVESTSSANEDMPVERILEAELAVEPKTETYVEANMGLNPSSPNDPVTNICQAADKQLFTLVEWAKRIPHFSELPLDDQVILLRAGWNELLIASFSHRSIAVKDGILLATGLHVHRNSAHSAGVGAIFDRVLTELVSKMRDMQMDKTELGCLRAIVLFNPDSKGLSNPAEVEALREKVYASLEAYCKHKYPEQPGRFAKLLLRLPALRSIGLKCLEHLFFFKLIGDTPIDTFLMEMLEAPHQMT
Procedure text: Agonist activity at Renilla luciferase/GFP2-tagged RXRalpha homodimer (unknown origin) expressed in HEK293T cells by BRET2 assay
Assay type: cell-based, HEK-293T
Respond with the bare value in µM.

Query :: # returns recorded EC50 (system: Retinoic acid receptor RXR-alpha (Homo sapiens)) for CC1(C)CCC(C)(C)c2cc3c(cc21)O[C@@H]1CCC[C@]31c1ccc(C(=O)O)cc1
Result :: 0.0251

Query :: # returns recorded EC50 (system: Retinoic acid receptor RXR-alpha (Homo sapiens)) for CC1(C)CCC(C)(C)c2cc3c(cc21)O[C@@H]1CCCC[C@]31c1ccc(C(=O)O)cc1
Result :: 0.0158
